# credit: patent US9073943B2

System: Huh7.5/J6/JFH1/EMCVIRES/hRlucNeo cell line expressing a bicistronic genotype 2a replicon
Assay: HCV replicon assay, genotype 2a (Renilla luciferase readout)
Format: cell-based
Conditions: Hepatitis C virus, genotype 2a replicon in Huh 7.5 cells, 72 h, read-out: Gt2a IC50
Provide the reported pIC50 of each item.
Please report pIC50 as the negative decimal logarithm of the molar concentration, giving only the number.

Would you mind telling me what pIC50 value was observed for "COC(=O)N[C@H](C(=O)N1CCC[C@H]1c1nc(Cl)c(-c2ccc3c(c2)OCC(C)(C)COc2cc(-c4[nH]c([C@@H]5CCCN5C(=O)[C@@H](NC(=O)OC)C(C)C)nc4Cl)ccc2-3)[nH]1)C(C)C" ?
9.60

For the molecule "COC(=O)N[C@H](C(=O)N1CCC[C@H]1c1ncc(-c2ccc3c(c2)OCCCOc2cc(-c4[nH]c([C@@H]5CCCN5C(=O)[C@@H](NC(=O)OC)C(C)C)nc4Cl)ccc2-3)[nH]1)C(C)C" , what pIC50 is on record?
10.28

I would be grateful if you could share the reported pIC50 for "COC(=O)N[C@H](C(=O)N1CCC[C@H]1c1nc(Cl)c(-c2ccc3c(c2)OCCCOc2cc(-c4[nH]c([C@@H]5CCCN5C(=O)[C@@H](NC(=O)OC)C(C)C)nc4Cl)ccc2-3)[nH]1)C(C)C" .
10.43

Quick one: pIC50 of "COC(=O)N[C@H](C(=O)N1CCC[C@H]1c1ncc(-c2ccc3c(c2)OCC(C)(C)COc2cc(-c4[nH]c([C@@H]5CCCN5C(=O)[C@@H](NC(=O)OC)C(C)C)nc4Cl)ccc2-3)[nH]1)C(C)C" ?
9.17
